TARGET_OF_ASSAY: EGFR del19/C797S (Homo sapiens, UniProt P00533, C797S/DEL746-750)
Sequence (P00533 with tags, fused parts or gaps DEL746-750/C797S): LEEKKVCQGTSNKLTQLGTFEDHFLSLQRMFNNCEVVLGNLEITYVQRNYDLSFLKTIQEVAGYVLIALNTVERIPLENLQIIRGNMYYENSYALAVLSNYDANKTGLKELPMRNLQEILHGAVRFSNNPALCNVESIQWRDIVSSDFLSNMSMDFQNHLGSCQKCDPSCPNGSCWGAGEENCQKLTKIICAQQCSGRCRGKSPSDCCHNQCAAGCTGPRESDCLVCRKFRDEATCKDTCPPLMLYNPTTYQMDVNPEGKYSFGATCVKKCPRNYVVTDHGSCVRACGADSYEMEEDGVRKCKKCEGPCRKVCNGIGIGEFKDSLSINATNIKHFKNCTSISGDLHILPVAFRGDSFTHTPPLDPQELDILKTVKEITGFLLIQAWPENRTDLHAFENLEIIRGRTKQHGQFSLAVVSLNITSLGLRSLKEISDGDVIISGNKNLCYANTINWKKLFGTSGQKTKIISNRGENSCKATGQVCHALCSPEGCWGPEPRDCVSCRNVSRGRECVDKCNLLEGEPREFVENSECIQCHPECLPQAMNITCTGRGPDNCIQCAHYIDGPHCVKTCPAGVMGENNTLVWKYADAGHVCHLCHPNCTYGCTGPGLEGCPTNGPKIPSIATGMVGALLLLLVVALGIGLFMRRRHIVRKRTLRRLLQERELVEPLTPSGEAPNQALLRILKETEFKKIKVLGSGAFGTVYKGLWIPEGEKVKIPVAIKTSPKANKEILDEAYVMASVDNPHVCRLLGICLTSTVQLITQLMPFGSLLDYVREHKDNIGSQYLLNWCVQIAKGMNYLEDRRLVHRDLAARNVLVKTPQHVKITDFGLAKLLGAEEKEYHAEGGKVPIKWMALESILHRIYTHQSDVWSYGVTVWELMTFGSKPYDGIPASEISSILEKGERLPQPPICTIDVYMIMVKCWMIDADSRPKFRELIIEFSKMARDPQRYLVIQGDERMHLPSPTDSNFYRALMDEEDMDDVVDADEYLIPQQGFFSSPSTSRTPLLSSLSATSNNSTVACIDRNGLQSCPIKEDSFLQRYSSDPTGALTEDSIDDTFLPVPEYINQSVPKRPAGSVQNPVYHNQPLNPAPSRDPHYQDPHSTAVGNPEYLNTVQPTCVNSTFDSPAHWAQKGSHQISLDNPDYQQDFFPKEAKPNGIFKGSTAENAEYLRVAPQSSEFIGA
ASSAY_NAME: Biochemical EGFR kinase assay (Lance Ultra TR-FRET), double mutant del19/C797S
CONDITION_INFO: IC50 del19/C797S, 100 μM ATP
MEASURED_PROPERTY: pIC50
Numbers only, as −log10 of the molar value.

COMPOUND | TARGET_OF_ASSAY | MEASURED_PROPERTY | RESULT_VALUE
CC(C)(O)[C@H]1CC[C@@H](Nc2cc(Nc3ccnc(-c4cnn(S(=O)(=O)C5CC5)c4)n3)ncc2-c2cccc(CC(F)(F)F)n2)CC1 [Example 247] | EGFR del19/C797S (Homo sapiens, UniProt P00533, C797S/DEL746-750) | pIC50 | 7.09
O=S(=O)(C1CC1)n1cc(-c2nccc(Nc3cc(NC4CCC(F)(CO)CC4)c(-c4cccc(F)n4)cn3)n2)cn1 (stereo not shown) [Example 162] | EGFR del19/C797S (Homo sapiens, UniProt P00533, C797S/DEL746-750) | pIC50 | 7.68
CC1(O)CCC(Nc2cc(Nc3ccnc(-c4cnn(S(=O)(=O)C5CC5)c4)n3)ncc2-c2ccc(C(O)C(F)(F)F)cn2)CC1 (stereo not shown) [Example 226] | EGFR del19/C797S (Homo sapiens, UniProt P00533, C797S/DEL746-750) | pIC50 | 8.33

stdin: Any idea what its pIC50 is? The compound is C[C@]1(O)CC[C@@H](Nc2cc(Nc3ccnc(-c4cnn(S(=O)(=O)C5CC5)c4)n3)ncc2-c2cc(OCCN3CCOCC3)ccn2)CC1 [Example 211]
stdout: 8.62

---

TARGET_OF_ASSAY: EGFR del19/C797S (Homo sapiens, UniProt P00533, C797S/DEL746-750)
ASSAY_NAME: Biochemical EGFR kinase assay (Lance Ultra TR-FRET), double mutant del19/C797S
CONDITION_INFO: ATP at Km; read-out: IC50 del19/C797S, Km ATP
Experimental: Biochemical EGFR kinase assays were conducted using Lance Ultra time-resolved fluorescence resonance energy transfer (TR-FRET) technology from Perkin-Elmer. […] Each kinase reactions were incubated at room temperature for 1 hour and then stopped by the addition of 4 μL of stop solution (10 mM EDTA). […] After 60 minutes incubation at room temperature the LANCE signal was measured on an EnVision Multilabel Reader (Perkin-Elmer). […]
Simple rule here: IC50 less than 6 nM is criterion met, otherwise criterion not met.

Answered cases to consult:
SMILES | ASSIGNED_CATEGORY
O=S(=O)(C1CC1)n1cc(-c2nccc(Nc3cc(NCC4(CO)COC4)c(-c4cccc(F)n4)cn3)n2)cn1 | criterion met
CC(F)(F)c1ccc(-c2cnc(Nc3ccnc(-c4cnn(S(=O)(=O)C5CC5)c4)n3)cc2N[C@H]2CC[C@@](C)(O)CC2)nc1 | criterion met
CC(F)(F)c1ccc(-c2cnc(Nc3ccnc(-c4cnn(S(=O)(=O)C5CC5)c4)n3)cc2N[C@H]2CC[C@@H](CO)CC2)nc1 | criterion not met
CC(C)(O)c1ccc(-c2cnc(Nc3ccnc(-c4cnn(S(=O)(=O)C5CC5)c4)n3)cc2N[C@H]2CC[C@@H](CO)CC2)nc1 | criterion met

Okay, next one:
stdin: Lab note: confirm whether the reported IC50 for this compound is below 6 nM, equality not counting. compound: `O=S(=O)(C1CC1)n1cc(-c2nccc(Nc3cc(N[C@H]4CC[C@@H](CO)CC4)c(-c4ccc(OC(F)(F)F)cn4)cn3)n2)cn1`
stdout: criterion not met

Origin of measurements: patent US12258328B2
